B1: FBXO34 (parent)
chain: ASSVESTLPVLEASSWKKQVSHDF

Variants of: B1
Assay info: protein stability index of a GFP-peptide fusion (GPS, HEK-293T) (PSI 1-6); higher = more stable;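 further: lentivirally expressed fusions sorted by FACS into six bins by GFP to DsRed ratio, PSI derived from sequencing read proportions per bin multiplied by bin number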
Details: c terminus: a fixed tail appended
Could you label it YES if measured protein stability index is 3 or higher, and NO otherwise?

Test whether the variant `S14Y` records protein stability index of 3 or higher.
NO

Moving on to `S21L`
NO

Moving on to `S21P`
YES

Moving on to `L11N`
NO

Moving on to `W16M`
YES

Moving on to `E5N`
NO

Moving on to `H22W`
NO

Moving on to `K18A`
NO

Moving on to `D23C`
NO

Moving on to `S15V`
NO

Moving on to `S6M`
NO

Moving on to `K17Y`
NO

Moving on to `W16K`
YES

Moving on to `F24I`
NO

Moving on to `W16I`
YES

Moving on to `Q19E`
YES

Moving on to `V20A`
YES

Moving on to `W16S`
YES

Moving on to `S3Y`
NO

Moving on to `L11M`
NO

Moving on to `L11G`
NO

Moving on to `S2E`
YES

Moving on to `S21E`
NO

Moving on to `S15W`
NO

Moving on to `S15Q`
YES

Moving on to `K18Q`
NO

Moving on to `A13D`
YES

Moving on to `V4H`
YES

Moving on to `S2I`
NO

Moving on to `V4W`
NO

Moving on to `D23R`
YES

Moving on to `A1K`
NO

Moving on to `W16Y`
YES

Moving on to `S21K`
YES

Moving on to `E5Y`
NO

Moving on to `V10E`
NO

Moving on to `E5D`
YES

Moving on to `S21N`
YES

Moving on to `T7R`
NO

Moving on to `S2C`
NO

Moving on to `V4Q`
YES

Moving on to `A1Q`
NO

Moving on to `V4F`
NO

Moving on to `K18S`
YES

Moving on to `W16T`
YES

Moving on to `V10D`
YES

Moving on to `V10M`
YES

Moving on to `S14V`
NO

Moving on to `T7Y`
YES

Moving on to `F24T`
YES

Moving on to `A1V`
NO

Moving on to `H22R`
NO

Moving on to `S2T`
YES

Moving on to `V10Q`
YES

Moving on to `V20I`
YES

Moving on to `S21R`
YES

Moving on to `K17T`
NO

Moving on to `S14W`
NO

Moving on to `E12S`
NO

Moving on to `T7K`
NO

Moving on to `L8T`
YES

Moving on to `S2D`
YES

Moving on to `V20T`
YES

Moving on to `Q19H`
YES

Moving on to `V10F`
NO

Moving on to `A1S`
YES

Moving on to `D23H`
YES

Moving on to `H22S`
NO

Moving on to `A1E`
NO

Moving on to `E5S`
YES

Moving on to `Q19F`
NO

Moving on to `V10T`
NO
